Measurement Notes: Selectivity index, ratio of CC50 for African green monkey Vero cells to IC50 of Mycobacterium tuberculosis H37Rv
Type: toxicity
Protocol Conditions: read-out: Ratio IC50

| Molecular String | selectivity ratio |
| --- | --- |
| O=C(CNC1CCCCC1)N(c1ccccc1)c1ccccc1 | 21.1 |
| O=C(CNC1CCCC1)N(c1ccccc1)c1ccccc1 | 24 |
